System: SF-539 CNS
PROTOCOL DETAILS: NCI tumour cell line growth inhibition, 48 h
Catalogue of compounds with associated TGI

Solved cases below.
Short answer please: TGI, SF-539 CNS, entry COC(=O)C1=CC2OC1(C)CCC2=O (configuration not stated)
> 100 µM

And the next one, O=C(Nc1ccc(Cl)c(Cl)c1)OCCN1c2ccccc2Sc2ccccc21 ?
> 10 µM

Repeat for the following compound: CC(Br)C(=O)Nc1ccc(C(=O)O)c(O)c1 (configuration not stated)
> 100 µM

Try this compound next: COc1ccc(CCNC(=O)[C@H]2CCCC[C@@H]2CCO)cc1OC
> 100 µM

Continue with COC1OC2COC(c3ccccc3)OC2C(O)C1Br (configuration not stated)
> 100 µM

Continuing:
Look up TGI with SF-539 CNS for this compound: Nc1n[nH]c(CCc2nc(N)n[nH]2)n1
> 100 µM

Then what about the compound CC(C)CCN[C@@H]1CCc2cc(O)c(N3CC(=O)NS3(=O)=O)c(F)c2C1 ?
> 100 µM

Moving on to the next compound: CCOC(=O)C(=O)C(CCC(=O)c1ccc2ccccc2c1O)C(=O)OCC (configuration not stated)
> 100 µM

What do we get for CCC(=O)C(C(C)/C=C/CCSc1ccccc1)C(O)CCCCCC(=O)OC (configuration not stated) ?
> 100 µM

One more compound: O=S(=O)(C/C(=N\O)c1ccccc1)c1ccccc1
> 100 µM

What do you have for O=C1c2ccccc2-c2c1c(-c1cccc(Br)c1)nc1ccc3ccccc3c21 ?
> 100 µM

###

Test system: CCRF-CEM leukemia
PROTOCOL DETAILS: NCI tumour cell line growth inhibition, 48 h
MEASUREMENT KIND: TGI

Previously resolved entries follow.
For O=S(=O)(NCCNc1nccc(-c2c(-c3ccc(F)cc3)nc3sccn23)n1)c1ccccc1 , what is its reported TGI?
> 100 µM

// next record COc1ccc2c(c1)CCC(OS(=O)(=O)CC13CCC(CC1=O)C3(C)C)C2=O (stereo not given)
> 100 µM

Next compound up: COP(=O)(OC)/C(=C\c1cn(C(c2ccccc2)(c2ccccc2)c2ccccc2)cn1)NC(C)=O
> 100 µM

Note, next up: Clc1nc(Cl)c2ncn(Cc3ccc(Cn4cnc5c(Cl)nc(Cl)nc54)cc3)c2n1
1.84 µM

Continuing:
Which TGI value is on record for C=CCn1c(-c2ccc(-c3cs/c(=N\N=O)n3CC=C)cc2)cs/c1=N\N=O ?
> 100 µM

###

Quick list: TGI per entry.
System: LOX IMVI melanoma
PROTOCOL DETAILS: NCI tumour cell line growth inhibition, 48 h

Solved entries:
Reported TGI for O=C1NC2(CCN(CCCC3(c4ccc(F)cc4)OCCO3)CC2)Oc2ccccc21 : what is it?
> 100 µM

Record: CC(C)COC(=O)c1ccc2[nH]c(O)c(C=Nc3ccc(S(N)(=O)=O)cc3)c2c1
4.06 µM

// repeat for Cc1cc(-c2nc3cccc(F)c3s2)ccc1N and report
> 100 µM

Here is the next compound: COc1ccc(Nc2c3ccccc3nc3[nH]c4ccccc4c23)cc1
29.5 µM

Request: Nc1nc(N)c2nc(CNc3ccc(C(=O)NC(CCCCNC(=O)c4ccccc4C(=O)O)C(=O)O)cc3)cnc2n1 (centres undefined)
> 100 µM

And what about the compound Cc1cc2c(cc1N)C(C)C1(CCC(=O)N2Cc2ccccc2)OCCO1 (centres undefined) ?
> 100 µM

What do you have for C=C1[C@@H]([C@@]2(C)C=CC(=O)C(C)(C)[C@@H]2CC(=O)OC)CC[C@@]2(C)C(c3ccoc3)OC(=O)[C@H]3O[C@]132 (some centres undefined) ?
> 100 µM

Thanks! And COc1cc(C2C(Cl)C(=O)N2NC(=O)c2ccc(NC(C)=O)cc2OC)ccc1O (centres undefined) ?
26.4 µM

Consider the record given below.
What value of measured TGI is listed for COC(=O)[C@@H](C)C[C@H](Cc1ccccc1)NC(=O)c1csc([C@@H](C[C@H](C(C)C)N(C)C(=O)[C@H](C)NC(=O)[C@H]2CCCCN2C)OC(C)=O)n1 ?
> 25 µM
